Experiment: CCTE_Shafer_MEA_dev_per_network_spike_spike_percent: CCTE's Neural Network Formation Assay for Percent of Spikes in a Network Spike, Shafer Lab (AID 2284054)
Activity calls are given as the source filed them. The calls were made as follows: active = hit-call score of the fitted dose curve at least 0.9, where 1 is the maximum; inactive = score below 0.9.
Possible outcomes: Y for active, N for inactive

>>> label_value("OC(Cc1ccccc1Cl)(Cn1[nH]cnc1=S)C1(Cl)CC1 (stereo unspecified)")
"Y"
>>> label_value("Cc1ccccc1OP(=O)(Oc1ccccc1C)Oc1ccccc1C")
"Y"
>>> label_value("CC1(C)[C@H](C(=O)O[C@H](C#N)c2cccc(Oc3ccccc3)c2)[C@@H]1/C=C(\\Cl)C(F)(F)F")
"Y"
>>> label_value("CS(=O)(=O)c1ccc(C(=O)C2C(=O)CCCC2=O)c(Cl)c1COCC(F)(F)F")
"N"
>>> label_value("CC(F)(F)CC(F)(F)F")
"N"
>>> label_value("C=CC(F)(C(F)(F)F)C(F)(F)C(F)(F)F (stereo unspecified)")
"N"

----------
Target: Peroxisome proliferator-activated receptor gamma (Homo sapiens)
Assay: ATG_PPARg_TRANS: Attagene TRANS-FACTORIAL HepG2 Assay for human Peroxisome Proliferator-activated Receptor-gamma (PPARg) (AID 2283007)
Records with an inconclusive call do not appear. Active and inactive are the calls of the source. The calls were made as follows: active = hit-call score of the fitted dose curve at least 0.9, where 1 is the maximum; inconclusive = response in the unintended direction; inactive = score below 0.9.
Possible outcomes: 1 (yes) (active), 0 (no) (inactive)

>>> label_value("ClCc1ccccc1Cl")
"0 (no)"
>>> label_value("CCOC(=O)Cc1ccccc1")
"0 (no)"
>>> label_value("CCCCCCCCCCCCCl")
"0 (no)"
>>> label_value("Cc1cc(Cl)ccc1OC(C)C(=O)O (configuration not stated)")
"1 (yes)"
>>> label_value("CCC[CH2][Sn]([Cl])([Cl])[CH2]CCC")
"1 (yes)"
>>> label_value("CCCCOC(=O)COC(=O)c1ccccc1C(=O)OCCCC")
"1 (yes)"
>>> label_value("OC[C@@H](O)[C@H]1O[C@@H]2O[C@H](C(Cl)(Cl)Cl)O[C@@H]2[C@H]1O")
"0 (no)"

----------
Target: Retinoic acid receptor RXR-alpha (Homo sapiens) (UniProt P19793)
Sequence (P19793 whole entry, looked up): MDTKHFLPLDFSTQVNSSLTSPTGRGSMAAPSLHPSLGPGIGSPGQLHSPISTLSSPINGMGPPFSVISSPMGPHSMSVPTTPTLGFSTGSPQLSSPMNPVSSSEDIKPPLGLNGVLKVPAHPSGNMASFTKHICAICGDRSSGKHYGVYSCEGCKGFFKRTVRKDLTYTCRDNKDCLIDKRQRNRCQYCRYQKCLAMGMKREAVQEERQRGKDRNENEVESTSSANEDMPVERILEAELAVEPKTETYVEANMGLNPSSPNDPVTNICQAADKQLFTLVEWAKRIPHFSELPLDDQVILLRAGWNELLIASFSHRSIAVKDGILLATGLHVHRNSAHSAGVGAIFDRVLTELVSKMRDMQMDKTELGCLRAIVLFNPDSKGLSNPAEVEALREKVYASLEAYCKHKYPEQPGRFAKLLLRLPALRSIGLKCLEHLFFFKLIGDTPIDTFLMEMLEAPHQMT
Experiment: OT_NURR1_NURR1RXRa_0480: Odyssey Thera (OT) 8-hour HEK293T Protein Complementation Assay for Nurr1/retinoid X receptor (RXR) (AID 2283385)
Records with an inconclusive call do not appear. Active and inactive are the calls of the source. Rule for the calls: active = hit-call score of the fitted dose curve at least 0.9, where 1 is the maximum; inconclusive = response in the unintended direction; inactive = score below 0.9.
Possible outcomes: active, inactive

>>> label_value("C=CC(Cl)CCl (centres undefined)")
"inactive"
>>> label_value("CCCCCCCCCCCCOS(=O)(=O)O")
"inactive"
>>> label_value("COC(=O)Nc1cccc(OC(=O)Nc2cccc(C)c2)c1")
"inactive"
>>> label_value("O=S1OC[C@@H]2[C@H](CO1)[C@]1(Cl)C(Cl)=C(Cl)[C@@]2(Cl)C1(Cl)Cl (some centres undefined)")
"active"
>>> label_value("Nc1ccc(N)cc1")
"inactive"
>>> label_value("CC(C)(C)c1ccccc1O")
"inactive"
>>> label_value("O=C1c2ccccc2C(=O)C1C(=O)C(c1ccccc1)c1ccc(Cl)cc1 (centres undefined)")
"active"
>>> label_value("Cc1cc(Cl)ccc1OC(C)C(=O)O (centres undefined)")
"inactive"
>>> label_value("Cc1cc(C)cc(C)c1")
"inactive"
>>> label_value("CCOCn1c(-c2ccc(Cl)cc2)c(C#N)c(Br)c1C(F)(F)F")
"active"
>>> label_value("N#Cc1cccnc1")
"inactive"
>>> label_value("Clc1cccc(Cl)c1Cl")
"inactive"
>>> label_value("CCOc1ccc(N)cc1")
"inactive"
>>> label_value("CCOP(=S)(OCC)O/N=C(\\C#N)c1ccccc1")
"inactive"
>>> label_value("CN(N=O)C(N)=O")
"inactive"
>>> label_value("Oc1c(Br)cc(Br)cc1Br")
"inactive"
>>> label_value("O=CCCl")
"inactive"
>>> label_value("Cc1cc(Cl)ccc1OCCCC(=O)O")
"inactive"
>>> label_value("OCCCCO")
"inactive"

The measurements presented in this section are drawn from PubChem BioAssay (EPA / NIEHS).
